tested on: TAB165; assay: qHTS profiling for inhibitors of Plasmodium falciparum proliferation (AID 504749); also: nearly all actives have a fitted effect of over 60% in size; settings: P. falciparum in erythrocytes, SYBR Green DNA, 72 h; series mostly up to 28.7 µM
Results filed as inconclusive are left out. Active and inactive are the calls of the source. Calls follow the shape of the dose curve; as a rule, active = well fitted inhibition curve with a large enough effect; inconclusive = small, poorly fitted or top-dose-only effect; inactive = flat fitted curve, though single readings scatter.
Labels: active, inactive

Molecule	Qualitative label
COc1ccc(C(Cl)=C(c2ccc(OC)cc2)c2ccc(OC)cc2)cc1	active
Cc1c(-c2ccccc2)oc2c(C(=O)OCCN3CCCCC3)cccc2c1=O	inactive
O=C(Oc1cccc2cccnc12)c1ccccc1	inactive
C#C[C@]1(O)CC[C@H]2[C@@H]3CCc4cc(OC)ccc4[C@H]3CC[C@@]21C	inactive
COc1cc(C)nc(-n2nc(C)cc2OC)n1	inactive
CC[N+](C)(CC)CCOC(=O)C(O)(c1ccccc1)C1CCCCC1 (stereo not drawn)	inactive
NS(=O)(=O)c1cc(C(=O)O)cc(N2CCCC2)c1Oc1ccccc1	inactive
CCc1ccc(C(=O)C(C)CN2CCCCC2)cc1 (stereo not drawn)	inactive
NC(=S)N/N=C/c1cccnc1	inactive
Cc1ccccc1OCC(O)CO (stereo not drawn)	inactive
Cc1cc(C)cc(OCC2CNC(=O)O2)c1 (stereo not drawn)	inactive
CC(=O)Nc1ccc(S(=O)(=O)Nc2ccc([N+](=O)[O-])cc2)cc1	inactive
CC[C@H](c1ccc(O)cc1)[C@@H](CC)c1ccc(O)cc1	inactive
Nc1ccc(C(=O)NCC(=O)O)cc1	inactive
Cc1cccc(C)c1NC(=O)CN1CCCCCC1	inactive
NC(=O)n1c(O)c(C(=O)c2cccs2)c2cc(Cl)ccc21	inactive
CCN(CC)CCNc1ccc(CO)c2sc3ccccc3c(=O)c12	active
CC(=O)OCC(=O)[C@H]1CC[C@H]2[C@@H]3CCC4=CC(=O)CC[C@]4(C)[C@H]3CC[C@]12C	inactive
Cc1ccc(O)c([C@H](CCN(C(C)C)C(C)C)c2ccccc2)c1	active
COc1ccc(CN(CCN(C)C)c2ncccn2)cc1	inactive
O=C1C(O)=C(O)C(=O)C(O)=C1O	inactive
CC(C)(C)NC[C@H](O)COc1cccc2c1CCCC2=O	inactive
c1ccc(CC2=NCCN2)cc1	inactive
CCCCCCCCCCCCCCCC(=O)O	inactive
N/C(=N\N=C\c1ccc(Cl)cc1)N/N=C/c1ccc(Cl)cc1	active
O=C(O)Cc1csc(-c2ccc(Cl)cc2)n1	inactive
CCc1oc2ccccc2c1C(=O)c1cc(Br)c(O)c(Br)c1	inactive
COc1ccc(/C=N/NC(=O)c2ccncc2)cc1OC	inactive

###

test system: DIV17; experiment: qHTS profiling for inhibitors of Plasmodium falciparum proliferation (AID 504749); also: nearly all actives have a fitted effect of over 60% in size; details: P. falciparum in erythrocytes, SYBR Green DNA, 72 h; series mostly up to 28.7 µM
Records with an inconclusive call do not appear. The source made the active and inactive calls. Calls come from the whole dose curve; as a rule, active = well fitted inhibition curve with a large enough effect; inconclusive = small, poorly fitted or top-dose-only effect; inactive = flat fitted curve, though single readings scatter.
Labels: 1 for active, -1 for inactive

Molecule	Qualitative label
CC(=O)Nc1ccc(CC(=O)O)cc1	-1
O[C@@H](c1cc(C(F)(F)F)nc2c(C(F)(F)F)cccc12)[C@H]1CCCCN1	1
C#C[C@]1(O)CC[C@H]2[C@@H]3CCC4=CC(=O)CC[C@@H]4[C@H]3CC[C@@]21CC	-1
CN(C)CCC[C@@]1(c2ccc(F)cc2)OCc2cc(C#N)ccc21	-1
C#C[C@]1(O)CC[C@H]2[C@@H]3CCC4=Cc5oncc5C[C@]4(C)[C@H]3CC[C@@]21C	-1
CC(=O)OCC(=O)[C@H]1CC[C@H]2[C@@H]3CCC4=CC(=O)CC[C@]4(C)[C@H]3CC[C@]12C	-1
CCc1oc2ccccc2c1C(=O)c1cc(Br)c(O)c(Br)c1	-1
CC[C@H](c1ccc(O)cc1)[C@@H](CC)c1ccc(O)cc1	-1
CN1CCc2cccc3c2[C@H]1Cc1ccc(O)c(O)c1-3	1
CC(C)(C)NC[C@H](O)COc1nsnc1N1CCOCC1	1
FC1(F)C(F)(F)C(F)(F)C2(F)C(F)(F)C(F)(F)C(F)(F)C(F)(F)C2(F)C1(F)F (centres undefined)	-1
COP(=O)(OC)OC(c1ccc(Cl)cc1)P(=O)(OC)OC (centres undefined)	-1
CCc1oc2ccccc2c1C(=O)c1cc(I)c(O)c(I)c1	-1
CCCCCCCCNC(C)C(O)c1ccc(SC(C)C)cc1 (centres undefined)	1
NC1CCN(c2nc3c(cc2F)c(=O)c(C(=O)O)cn3-c2ccc(F)cc2F)C1 (centres undefined)	-1
OC1C(O)C(O)C(O)C(O)C1O (centres undefined)	-1
CCN(CC)CCNc1ccc(CO)c2sc3ccccc3c(=O)c12	1
NS(=O)(=O)c1cc(C(=O)O)cc(N2CCCC2)c1Oc1ccccc1	-1
C/C=C/C=N/NC(=O)c1ccncc1	-1
COc1ccc(/C=N/NC(=O)c2ccncc2)cc1OC	-1
O=C(O)c1ccc(S(=O)(=O)N(Cl)Cl)cc1	-1
Nc1ccc(S(=O)(=O)Nc2cnc3ccccc3n2)cc1	-1
CNCCCCOc1ccccc1Cc1ccccc1	1
CC(C)(Cc1c[nH]c2ccccc12)NCC(O)COc1ccccc1C#N (centres undefined)	1

###

molecular target: Cytochrome P450 2C9 (Homo sapiens) (UniProt P11712); assay: Cytochrome P450 family 2 subfamily C member 9 (CYP2C9) small molecule antagonists: luciferase biochemical (cell-free) qHTS assay (AID 1645842); conditions: P450-Glo CYP2C9 enzyme assay, luciferin luminescence; series mostly up to 57.4 µM; also: nearly all actives have a fitted effect of over 55% in size; also: potency is read from the fitted curve at half-maximal effect
Sequence (P11712 whole entry, looked up): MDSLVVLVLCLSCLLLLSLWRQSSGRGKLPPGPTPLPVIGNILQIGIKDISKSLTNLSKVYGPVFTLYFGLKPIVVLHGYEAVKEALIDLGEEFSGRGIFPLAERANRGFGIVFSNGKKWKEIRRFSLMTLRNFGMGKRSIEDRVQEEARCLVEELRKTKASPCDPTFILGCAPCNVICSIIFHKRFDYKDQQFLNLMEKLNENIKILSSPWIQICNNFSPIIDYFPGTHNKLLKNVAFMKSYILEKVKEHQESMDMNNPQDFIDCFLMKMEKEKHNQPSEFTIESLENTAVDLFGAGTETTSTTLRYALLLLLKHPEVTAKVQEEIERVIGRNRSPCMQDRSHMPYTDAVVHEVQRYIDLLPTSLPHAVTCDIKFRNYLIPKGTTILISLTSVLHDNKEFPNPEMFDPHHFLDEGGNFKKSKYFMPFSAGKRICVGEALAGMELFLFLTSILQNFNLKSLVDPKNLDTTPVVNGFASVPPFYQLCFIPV
Records with an inconclusive call do not appear. The source made the active and inactive calls. Calls come from the whole dose curve; as a rule, active = well fitted inhibition curve with a large enough effect in the repeat runs; inconclusive = weak or mixed curves; inactive = no such curve, though single readings can be large or run the other way.
Property name: Potency

Molecule	Readout value
CC(=C(CCOC(=O)C(C)C)SSC(CCOC(=O)C(C)C)=C(C)N(C=O)Cc1cnc(C)nc1N)N(C=O)Cc1cnc(C)nc1N	inactive
Nc1ccc(C(=O)NCC(=O)O)cc1	inactive
Oc1c(Cl)cc(Cl)c(Cl)c1Cc1c(O)c(Cl)cc(Cl)c1Cl	1.55 µM (active)
NC(=O)c1ccccc1O	inactive
O=C1C(=O)c2ccccc2C(O)=C1C1CCC(c2ccc(Cl)cc2)CC1 (configuration not stated)	inactive
COc1ccc(-c2cc(C(F)F)nn2-c2ccc(S(N)(=O)=O)cc2)cc1F	6.17 µM (active)
CC(=O)Nc1ccc(OC(=O)c2ccccc2OC(C)=O)cc1	inactive
O=[N+]([O-])c1ccc(/C=N\O)o1	inactive
Cc1nc(-c2ccc(Cl)cc2)oc1COC(C)(C)C(=O)O	inactive
COc1ccc(CN(CCN(C)C)c2ncccn2)cc1	inactive
FC1(F)C(F)(F)C(F)(F)C2(F)C(F)(F)C(F)(F)C(F)(F)C(F)(F)C2(F)C1(F)F (configuration not stated)	inactive
NCc1ccccc1Sc1ccccc1CO	15.5 µM (active)
CC1CCc2c(N3CCC(O)CC3)c(F)cc3c(=O)c(C(=O)O)cn1c23 (configuration not stated)	inactive
CC(=O)NO	inactive
Cc1ccc(S(=O)(=O)NC(=O)NC2CCCC2)cc1	inactive
CCCCCCCCCCC[C@@H](C[C@@H]1OC(=O)[C@H]1CCCCCC)OC(=O)[C@H](CC(C)C)NC=O	2.75 µM (active)
C=C1c2cccc(O)c2C(O)=C2C(=O)[C@]3(O)C(O)=C(C(N)=O)C(=O)[C@@H](N(C)C)[C@@H]3[C@@H](O)[C@H]12	inactive
CC(C)CCCC(C)N (configuration not stated)	inactive
CN1CCN(c2cc3c(cc2F)c(=O)c(C(=O)O)cn3-c2ccc(F)cc2)CC1	inactive
N#CCC(=O)NN	inactive
CCOC(=O)[C@H](CCc1ccccc1)N[C@@H](C)C(=O)N1[C@H](C(=O)O)C[C@@H]2CCC[C@@H]21	inactive
CCc1oc2ccccc2c1C(=O)c1cc(I)c(O)c(I)c1	0.347 µM (active)
CCN(CC)CCNC(=O)COc1ccc(OC)cc1	inactive
CC(C)NCC(O)c1ccc2ccccc2c1 (configuration not stated)	inactive
C[C@@H](O)[C@H]1C(=O)N2C(C(=O)O)=C(S[C@@H]3CN[C@H](CNS(N)(=O)=O)C3)[C@H](C)[C@H]12	11 µM (active)
CCc1ccc(C(=O)C(C)CN2CCCCC2)cc1 (configuration not stated)	inactive
OCCOCCN1CCN(C2=Nc3ccccc3Sc3ccccc32)CC1	inactive
NCCNc1cccc2ccccc12	24.5 µM (active)
O=C(O)c1ccc(S(=O)(=O)N(Cl)Cl)cc1	inactive
NS(=O)(=O)c1cc(C(=O)O)cc(N2CCCC2)c1Oc1ccccc1	inactive
CN1CCc2cccc3c2[C@H]1Cc1ccc(O)c(O)c1-3	inactive
C/C=C/c1ccc(O)c(OC)c1	2.19 µM (active)
CCN1CCN(C(=O)N[C@@H](C(=O)N[C@@H]2C(=O)N3C(C(=O)O)=C(CSc4nnnn4C)CS[C@H]23)c2ccc(O)cc2)C(=O)C1=O	inactive
OC[C@H]1O[C@@H](Oc2ccc(O)cc2)[C@H](O)[C@@H](O)[C@@H]1O	inactive
CCOc1ccc(NC(C)=O)cc1	inactive
CCCCOC(=O)CC(CC(=O)OCCCC)(OC(C)=O)C(=O)OCCCC	1.74 µM (active)
NS(=O)(=O)c1ccc(Cl)c(S(N)(=O)=O)c1	inactive

The values you see were collected from PubChem BioAssay (NCATS).
